# experimental_target: Monoacyl Glycerol Lipase (MAGL) (Homo sapiens)
# Construct: purchased Cayman 10007812
# Sequence (Q99685 1-303): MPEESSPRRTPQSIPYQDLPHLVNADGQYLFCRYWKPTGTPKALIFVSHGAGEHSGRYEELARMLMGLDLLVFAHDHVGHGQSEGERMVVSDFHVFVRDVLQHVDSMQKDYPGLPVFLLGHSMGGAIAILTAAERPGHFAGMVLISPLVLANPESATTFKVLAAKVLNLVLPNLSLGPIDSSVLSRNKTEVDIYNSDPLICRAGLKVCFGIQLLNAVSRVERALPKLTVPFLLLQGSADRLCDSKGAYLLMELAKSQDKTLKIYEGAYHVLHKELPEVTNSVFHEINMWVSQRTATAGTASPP
# test_protocol: Monoacyl Glycerol Lipase (MAGL) inhibitory activity
# Format: biochemical
readout_name: pIC50
pIC50 here: minus log base 10 of the concentration, concentration in moles per litre.

Record request: pIC50 value, item C=C(C)[C@@H]1CCC(C)=C[C@H]1c1c(O)cc(CCCCC)cc1O
1.88

###

Reported values: pIC50 for Fatty Acid Binding Protein 5 (FABP5) (Homo sapiens, UniProt Q01469), one per item.
Note on units: pIC50 is unitless, being -log10 of a concentration expressed in mol/L.

CCCCC/C=C\C/C=C\CCCCCCCC(=O)OCC [Ethyl Linoleate (Synovea ® EL), Ethyl linoleate] = 2.83

// next item, pIC50 requested
Quick check: pIC50 on Fatty Acid Binding Protein 5 (FABP5) (Homo sapiens, UniProt Q01469), item C=C[C@@](C)(/C=C/c1ccc(O)cc1)CCC=C(C)C ?
3.35
